# System Tested: Acetylcholinesterase (Homo sapiens)
# Measurement Protocol: Acetylcholinesterase (AChE) small molecule antagonists: enzyme-based qHTS assay with human liver microsomes (AID 1347399); also: nearly all actives have a fitted effect of over 60% in size
# Recorded Conditions: qHTS inhibition; series mostly up to 115 µM
The source made the active and inactive calls. Calls follow the shape of the full dose curve.
Labels: active, inactive

{"Compound": "CCCC[N+](=O)[O-]", "Classification": "inactive"}
{"Compound": "CCNc1nc(Cl)nc(NC(C)(C)C)n1", "Classification": "inactive"}
{"Compound": "C=CCCC#N", "Classification": "inactive"}
{"Compound": "CCCOC(=O)Cc1ccc(OCC(=O)N(CC)CC)c(OC)c1", "Classification": "inactive"}
{"Compound": "N[C@@H](Cc1ccc(Oc2cc(I)c(O)c(I)c2)c(I)c1)C(=O)O", "Classification": "inactive"}
{"Compound": "O=C/C=C/c1ccco1", "Classification": "inactive"}
{"Compound": "C=C(C)[C@H]1CN[C@H](C(=O)O)[C@H]1CC(=O)O", "Classification": "inactive"}
{"Compound": "CNC(=O)Oc1ccccc1C(C)C", "Classification": "active"}
{"Compound": "CC[C@@H](CO)NC(=O)[C@@H]1C=C2c3cccc4[nH]cc(c34)C[C@H]2N(C)C1", "Classification": "inactive"}
{"Compound": "C=C(Cl)CSC(=S)N(CC)CC", "Classification": "inactive"}
{"Compound": "Cc1ccc(S(=O)(=O)N[C@@H](CCCCN)C(=O)CCl)cc1", "Classification": "inactive"}
{"Compound": "O=C1C2CC=CCC2C(=O)N1SC(Cl)(Cl)Cl (centres undefined)", "Classification": "inactive"}
{"Compound": "CC(Cc1ccccc1)NCCCCl (centres undefined)", "Classification": "inactive"}
{"Compound": "CCC(C(N)=O)N1CCCC1=O (centres undefined)", "Classification": "inactive"}
{"Compound": "O=CCCl", "Classification": "inactive"}
{"Compound": "CC(C)(C)NC[C@H](O)c1ccc(O)cc1Cl", "Classification": "inactive"}
{"Compound": "CC(C)[N+](C)(CCC(C(N)=O)(c1ccccc1)c1ccccc1)C(C)C", "Classification": "inactive"}
{"Compound": "N=C(N)[Se]", "Classification": "inactive"}
{"Compound": "CN(C)CCc1c[nH]c2cccc(OP(=O)(O)O)c12", "Classification": "inactive"}
{"Compound": "C/C=C/CC#N", "Classification": "inactive"}
{"Compound": "CCCCCCCCBr", "Classification": "inactive"}
{"Compound": "CCC(C)(C#N)N=NC(C)(C#N)CC (centres undefined)", "Classification": "inactive"}
{"Compound": "CON(C)C(=O)Nc1ccc(Br)cc1", "Classification": "inactive"}
{"Compound": "C[C@]12C=CC(=O)C=C1CC[C@@H]1[C@@H]2CC[C@@]2(C)[C@H]1CC[C@]2(C)O", "Classification": "inactive"}
{"Compound": "CNC(=O)NC(O)C(Cl)(Cl)Cl (centres undefined)", "Classification": "inactive"}
{"Compound": "CCNP(=S)(OC)O/C(C)=C/C(=O)OC(C)C (centres undefined)", "Classification": "inactive"}
{"Compound": "NCCOS(=O)(=O)O", "Classification": "inactive"}
{"Compound": "CCSC(=O)Cl", "Classification": "inactive"}
{"Compound": "CCOC(=O)CC(SP(=S)(OC)OC)C(=O)OCC (centres undefined)", "Classification": "inactive"}
